Answer each item with its documented pIC50.
molecular target: hROMK1 (Kir1.1) (Homo sapiens (Human)); assay: ^86Rb^+ Efflux Assay; type: cell-based; conditions: CHO-DHFR- cells stably expressing hROMK1 (Kir1.1); value in parentheses at the end of each Example; read-out: IC50 in the ^86Rb^+ Efflux Assay
Give bare numbers, as −log10 of the molar value.

Cc1c(CCN2CCN(CCc3ccc(C#N)c(OC(F)(F)F)c3)CC2)ccc2c1COC2=O :: 6.70
O=[N+]([O-])c1ccc(CCN2CCN(CCc3ccc([N+](=O)[O-])cc3)C(C3CC3)C2)cc1 (centres unmarked) :: 6.07
CCOc1cc(CCN2CCN(CCc3ccc4c(c3C)COC4=O)CC2)ccc1C#N :: 7.13
N#Cc1ccc2c(c1)CCC(N1CCN(CCc3ccc([N+](=O)[O-])cc3)CC1)C2 (centres unmarked) :: 7.30
O=C1OCc2cc(CCN3CCN(C4CCc5cc6nonc6cc5C4)CC3)ccc21 (centres unmarked) :: 6.68
Cc1c(CCN2CCN(CCc3ccc4c(c3C)COC4=O)CC2)ccc2c1COC2=O :: 7.12

List the reported pIC50 of each molecule below.
1. Cc1c(CCN2CCN(CC3CCOc4cc(C#N)ccc43)CC2)ccc2c1COC2=O (centres unmarked)
2. Cc1c(CCN2CCN(CCc3ccc4c(c3C)COC4=O)CC2)ccc(C#N)c1F

## Output
1. 6.74
2. 7.20

----------
biological target: hROMK1 (Kir1.1) (Homo sapiens (Human), UniProt P48048); assay: ^86Rb^+ Efflux Assay; format: cell-based; conditions: CHO-DHFR- cells stably expressing hROMK1 (Kir1.1); value in parentheses at the end of each Example; read-out: IC50 in the ^86Rb^+ Efflux Assay
Sequence (P48048 whole entry): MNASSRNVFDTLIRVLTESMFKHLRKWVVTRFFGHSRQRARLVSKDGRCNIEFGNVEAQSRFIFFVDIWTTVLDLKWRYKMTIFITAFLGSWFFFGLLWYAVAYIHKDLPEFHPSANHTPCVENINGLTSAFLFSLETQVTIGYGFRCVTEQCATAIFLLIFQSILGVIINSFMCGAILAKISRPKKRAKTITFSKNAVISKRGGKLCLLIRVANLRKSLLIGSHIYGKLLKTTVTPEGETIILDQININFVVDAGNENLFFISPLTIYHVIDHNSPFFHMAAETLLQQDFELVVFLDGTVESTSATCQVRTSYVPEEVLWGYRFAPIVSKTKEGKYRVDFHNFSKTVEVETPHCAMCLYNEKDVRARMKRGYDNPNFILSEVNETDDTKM
measure: pIC50
Numbers only, as −log10 of the molar value.

Known results for molecules:
COc1cc(CCN2CCN(CCc3ccc4c(c3C)COC4=O)CC2)c(F)cc1C#N :: 7.47
O=[N+]([O-])c1ccc(CCN2CCN(CCc3ccc([N+](=O)[O-])cc3)C(CO)C2)cc1 (centres unmarked) :: 6.59
COc1cc(CCN2CCN(CCc3cc(OC)c(C#N)cc3F)CC2)c(F)cc1C#N :: 6.47
Cc1c(CCN2CCN(CC(C)c3ccc4c(c3C)COC4=O)CC2)ccc2c1COC2=O (centres unmarked) :: 7.47

List the reported pIC50 of each molecule below.
1. COc1c(C#N)ccc(CCN2CCN(CCc3ccc4c(c3C)COC4=O)CC2)c1C
2. COc1cc(C(C)CN2CCN(CCc3ccc4c(c3)COC4=O)CC2)ccc1C#N (centres unmarked)

## Output
[7.11, 6.55]

List the reported pIC50 of each molecule below.
1. Cc1cc(CCN2CCN(CCc3ccc([N+](=O)[O-])cc3)CC2)ccc1C#N
2. Cc1c(CCN2CCN(CCc3cc(F)c(C#N)cc3Cl)CC2)ccc2c1COC2=O

## Output
6.72
7.32

Data origin, for the record: patent US9073882B2
